The entries below come with measured pEC50 values attached.
- Target: T1, human interleukin 13 receptor subunit alpha 2 (IL-13RA2) (human, UniProt Q14627 27-380)
- T1 construct: whole, on cells; also called IL-13Rα2; CD213A2
- T1 sequence (looked up): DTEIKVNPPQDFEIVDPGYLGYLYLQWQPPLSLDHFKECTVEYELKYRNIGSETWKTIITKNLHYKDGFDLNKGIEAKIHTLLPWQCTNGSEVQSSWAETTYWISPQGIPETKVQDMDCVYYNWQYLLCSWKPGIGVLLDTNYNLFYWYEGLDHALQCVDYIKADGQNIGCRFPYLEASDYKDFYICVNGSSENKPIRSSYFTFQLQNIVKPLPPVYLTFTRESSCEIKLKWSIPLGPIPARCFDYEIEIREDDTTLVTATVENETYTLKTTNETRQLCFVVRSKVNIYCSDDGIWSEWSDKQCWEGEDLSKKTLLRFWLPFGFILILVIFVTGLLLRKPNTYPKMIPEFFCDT
- Test Details: FACS on A375 cells
Bear in mind: pEC50 is minus log10 of a mol/L concentration; give just that figure.

Worked set:
Query block: Which pEC50 reading was recorded for the binder xi34A5G9 hIgG1 (antibody, V domains shown) VH: EVHLQQSGPELVKPGASVKISCKTSGYTFTEYTMHWVKQSHGKSLEWIGRINPNNGIAEYKQTFKDKATLAVDKSSSTAYMEFRSLTSEDSAVYYCARGEGYGYWFAYWGQGTLVTVSA VL: DIQMTQSPASLSASVGETVTITCRTSDNIYSYLAWYQQRQGKSPQLLVSNARTLAEGVPSRFSGSGSGTQFSLKINSLQPEDFGIYYCQHHSGTPFTFGSGTNLEIE ?
Result block: 9.59

Query block: Given the entry xi51G2B3 hIgG1 (antibody, V domains shown) VH: QVQLQQSGPELVKPGASVKISCKASGYAFSDSWMNWVKQRPGQGLEWIGRIYPGDGDTNYNGKFKGKATLTADKSSNTAYMQLSSLTSVDSAVYFCARSWNGSPWFPYWGQGTLVTVSA VL: DVLMTQTPLSLPVSLGDQASISCRSSQTIAHRNGNTYLEWYLQKPGQSPKLLLYKVSNRFSGVPDRFSGSGSGTDFTLKISRVEAEDLGVYYCFQGSHVTWTFGGGTKLEIK , report its measured pEC50.
Result block: 9.19

Query block: Name the reported pEC50 value associated with the binder xi62A8D8 hIgG1 (antibody, V domains shown) VH: EVKLVESGGGLVKPGGSLKLSCAASGFTFSSYGMSWVRQTPEKRLEWVATISGGGSYTYYPDSVKGRFTISRDNAKNNLYLQMSSLRSEDTALYYCARRDLRSAMDYWGQGTSVTVSS VL: DIVMTQSQKFMSTSVGDRVSVTCKASQNVDINVAWYQQKPGQSPKALIYSASYRYSGVPDRFTGSGSGTDFTLTISNVQSEDLAEFFCQQYNNYPLTFGGGTKLEIK
Result block: 9.09

Query block: Query (binder): xi24G6D5 hIgG1 (antibody, V domains shown) VH: QVQLQQSGPELVKPGTSVKMSCKASGYTFTSNYIHWVKQRPGQGLEWIGWIYPGDGSIKYNEKFKGKTTLTADKSSSTVYMLLSSLTSEDSAIYFCAVLRRLDYWGQGTTLTVSS VL: DIVLTQSPATLSVTPGDSVSLSCRASQSISNNLHWYQQKSHESPRLLIKYASQSISGIPSRFSGSGSGTDFTLSINSVETEDFGMYFCQQSNSWPLTFGAGTKLELK ; field requested: pEC50
Result block: 9.06

Could you now consider this next binder?
Query block: Look up pEC50: xi62F6A8 hIgG1 (antibody, V domains shown) VH: QVQIQQSGAELARPGASVMLSCKASGYTFTDYWMQWIKQRPGQGLEGIGAIYPGDGDTAYNQKFRGKATLTADKSSSTAYMQLNSLASEDSAVYFCARGATLLRPFPFWGQGTLVTVSA VL: DIVMTQSHKFMSTSVGDRVSITCKASQDVSTAVAWYQQKPGQSPKLLIYSASYRYAGVPDRFTGSGSGTDFTFTISSVQAEDLAVYSCQQHYSIPPTFGGGTKLEIK
Result block: 9.32
